Values were extracted from patent US9416115B2.

# ASSAY SYSTEM: wild-type human cardiac sodium channel, hNav1.5 (Homo sapiens)
# METHOD: Late INa screening assay (QPatch whole cell patch clamp, Tefluthrin-induced late current)
# Assay type: cell-based
# CONDITION DESCRIPTION: 1 uM; HEK293 hNav1.5; percent block of late INa
# Experimental: The cardiac late sodium current (Late INa) and peak sodium current (Peak INa) assays are performed on an automated electrophysiology platform, QPatch 16X or QPatch HT (Sophion Bioscience, Copenhagen, Denmark) using the whole cell patch clamp technique to measure currents through the cell membrane. […] Results are reported as percent block of late INa and results were analyzed by incorporating rundown correction for the Late INa.
MEASURE NAME: inhibition at 1 µM (%)
One number for each entry, in %.

Here are 10 compounds together with their reported answers.
Fc1cc(-c2ccc3onc(OCc4ncccn4)c3c2)ccc1Cl    52.6
Cc1cc(-c2ccc(OC(F)(F)F)cc2)cc2c(OCCN3CCCC3=O)noc12    47.7
FC(F)(F)Oc1ccc(-c2ccc3onc(NCCn4cncn4)c3c2)cc1    47.2
Fc1cc(-c2ccc(OC(F)(F)F)cc2)cc2c(OCCn3cncn3)noc12    23.6
CC(C)c1nnc(COc2noc3ccc(-c4ccc(OC(F)(F)F)cc4)cc23)o1    61.9
Cc1nc(COc2noc3ccc(-c4ccc(OC(F)(F)F)cc4)cc23)c(C)o1    24.3
O=C1CC[C@H](CNc2noc3ccc(-c4ccc(OC(F)(F)F)cc4)cc23)N1    21.1
COc1cc(-c2ccc(OC(F)(F)F)c(C)c2)cc2c(OCc3ncccn3)noc12    45.3
CN1CCC[C@H]1COc1noc2ccc(-c3ccc(OC(F)(F)F)cc3)cc12    81.5
FC(F)(F)Oc1ccc(-c2ccc3onc(OCCn4cnnc4)c3c2)cc1    44.1

# map each compound to its inhibition at 1 µM
1. OCC1(COc2noc3ccc(-c4ccc(OC(F)(F)F)cc4)cc23)COC1
2. FC(F)(F)Oc1ccc(-c2ccc3onc(OCCNc4ncccn4)c3c2)cc1
3. FC(F)(F)Oc1ccc(-c2ccc3onc(Oc4ccccn4)c3c2)cc1
4. CCn1ccnc1COc1noc2ccc(-c3ccc(OC(F)(F)F)cc3)cc12
5. FC(F)(F)Oc1ccc(-c2ccc3onc(OCc4cc5ccccc5cn4)c3c2)cc1
6. COc1cc2onc(OCc3ncccn3)c2cc1-c1ccc(OC(F)(F)F)cc1
7. CC(C)(C)c1cn(-c2noc3ccc(-c4ccc(OC(F)(F)F)cc4)cc23)cn1
8. COc1cc2onc(OCc3ncccn3)c2cc1-c1ccc(OC(F)(F)F)c(C)c1

1. 39
2. 36.3
3. 41.8
4. 60.2
5. 28.1
6. 30
7. 60.3
8. 46.7

----------
# ASSAY SYSTEM: hNaV1.2 (SCN2A) (Homo sapiens, UniProt Q99250)
# Construct: expressed in transfected cells
# Sequence (Q99250 whole entry): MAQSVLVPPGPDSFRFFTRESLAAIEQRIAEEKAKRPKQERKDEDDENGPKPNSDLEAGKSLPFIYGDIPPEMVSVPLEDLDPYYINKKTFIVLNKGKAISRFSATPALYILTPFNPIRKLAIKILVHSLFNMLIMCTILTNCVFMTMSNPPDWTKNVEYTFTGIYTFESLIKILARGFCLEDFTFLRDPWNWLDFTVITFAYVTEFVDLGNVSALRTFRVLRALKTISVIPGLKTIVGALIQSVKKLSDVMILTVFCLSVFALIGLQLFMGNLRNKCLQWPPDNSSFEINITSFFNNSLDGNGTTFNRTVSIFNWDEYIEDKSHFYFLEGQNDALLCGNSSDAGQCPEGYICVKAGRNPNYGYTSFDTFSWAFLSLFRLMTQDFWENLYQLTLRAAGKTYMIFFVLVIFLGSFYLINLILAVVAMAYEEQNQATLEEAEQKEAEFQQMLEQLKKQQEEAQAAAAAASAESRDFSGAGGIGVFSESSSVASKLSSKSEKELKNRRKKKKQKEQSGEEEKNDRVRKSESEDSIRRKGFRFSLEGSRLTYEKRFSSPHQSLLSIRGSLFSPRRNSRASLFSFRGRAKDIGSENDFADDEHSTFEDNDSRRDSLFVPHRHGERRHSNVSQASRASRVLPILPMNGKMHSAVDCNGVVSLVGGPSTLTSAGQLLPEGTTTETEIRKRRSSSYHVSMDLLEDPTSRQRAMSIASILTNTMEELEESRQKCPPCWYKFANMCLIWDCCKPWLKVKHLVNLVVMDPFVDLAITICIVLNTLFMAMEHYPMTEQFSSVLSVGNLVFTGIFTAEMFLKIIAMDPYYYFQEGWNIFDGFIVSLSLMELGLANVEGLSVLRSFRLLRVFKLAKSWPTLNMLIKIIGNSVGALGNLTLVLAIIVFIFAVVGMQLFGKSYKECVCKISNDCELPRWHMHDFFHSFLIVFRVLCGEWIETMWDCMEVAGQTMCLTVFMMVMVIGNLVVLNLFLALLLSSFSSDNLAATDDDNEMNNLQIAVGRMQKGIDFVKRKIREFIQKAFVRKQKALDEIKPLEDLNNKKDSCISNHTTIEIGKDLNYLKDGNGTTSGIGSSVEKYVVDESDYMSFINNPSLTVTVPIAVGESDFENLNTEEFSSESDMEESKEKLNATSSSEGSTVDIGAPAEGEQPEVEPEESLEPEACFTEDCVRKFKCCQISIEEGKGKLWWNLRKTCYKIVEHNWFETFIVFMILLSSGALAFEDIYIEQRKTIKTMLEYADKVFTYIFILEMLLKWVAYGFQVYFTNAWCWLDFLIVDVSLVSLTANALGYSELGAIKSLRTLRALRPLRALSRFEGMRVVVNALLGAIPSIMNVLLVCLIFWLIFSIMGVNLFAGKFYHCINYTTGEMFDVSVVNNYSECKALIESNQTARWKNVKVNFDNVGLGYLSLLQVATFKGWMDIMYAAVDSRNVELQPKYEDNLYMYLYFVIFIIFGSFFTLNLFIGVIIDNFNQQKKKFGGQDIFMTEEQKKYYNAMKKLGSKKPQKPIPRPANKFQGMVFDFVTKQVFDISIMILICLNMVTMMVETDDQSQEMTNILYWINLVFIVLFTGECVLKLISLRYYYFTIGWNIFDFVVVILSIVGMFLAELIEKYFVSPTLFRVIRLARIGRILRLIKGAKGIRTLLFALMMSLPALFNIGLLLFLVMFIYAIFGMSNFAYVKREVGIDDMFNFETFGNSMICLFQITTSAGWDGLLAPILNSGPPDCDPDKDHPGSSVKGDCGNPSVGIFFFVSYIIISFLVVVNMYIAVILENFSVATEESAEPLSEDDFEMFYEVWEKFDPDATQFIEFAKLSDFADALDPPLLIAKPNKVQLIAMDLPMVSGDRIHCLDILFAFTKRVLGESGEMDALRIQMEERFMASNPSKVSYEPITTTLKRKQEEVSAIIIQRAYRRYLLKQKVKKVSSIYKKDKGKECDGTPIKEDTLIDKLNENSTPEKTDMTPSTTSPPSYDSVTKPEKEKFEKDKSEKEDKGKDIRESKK
# Sequence (Q07699 19-218 partner): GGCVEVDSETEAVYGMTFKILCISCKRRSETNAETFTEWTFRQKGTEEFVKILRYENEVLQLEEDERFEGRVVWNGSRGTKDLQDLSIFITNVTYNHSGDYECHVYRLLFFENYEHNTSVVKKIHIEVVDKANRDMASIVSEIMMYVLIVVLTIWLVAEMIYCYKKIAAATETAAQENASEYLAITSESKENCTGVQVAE
# Sequence (O60939 30-215 partner): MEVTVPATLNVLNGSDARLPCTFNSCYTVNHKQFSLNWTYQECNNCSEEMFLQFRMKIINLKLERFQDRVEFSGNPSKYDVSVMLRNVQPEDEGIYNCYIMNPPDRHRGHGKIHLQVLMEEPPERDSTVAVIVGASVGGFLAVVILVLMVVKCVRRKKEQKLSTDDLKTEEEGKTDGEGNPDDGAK
# METHOD: Use-dependent inhibition of the CNS Nav1.2 sodium channel
# Format: cell-based
# CONDITION DESCRIPTION: use-dependent block, 25 Hz, pulse 20, read-out: Nav1.2 UDB 25 Hz 10 uM
MEASURE NAME: inhibition at 10 µM (%)
Numbers only, in %.

Here are 6 compounds together with their reported answers.
CC(C)c1nnc(COc2noc3ccc(-c4ccc(OC(F)(F)F)cc4)cc23)o1 [Example 100]    11
COc1cc(-c2ccc(OC(F)(F)F)c(C)c2)cc2c(OCc3ncccn3)noc12 [Example 23]    9.9
FC(F)(F)Oc1ccc(-c2ccc3onc(OC[C@H]4COCCN4)c3c2)cc1 [Example 114]    87
CC(C)(C)OC(=O)N1CCOC[C@H]1COc1noc2ccc(-c3ccc(OC(F)(F)F)cc3)cc12 [Example 111]    47.3
Cc1cc(-c2ccc(OC(F)(F)F)cc2)cc2c(OCc3nnc(C4CC4)o3)noc12 [Example 105]    70.9
Cc1nc(C)n(CCOc2noc3ccc(-c4ccc(OC(F)(F)F)cc4)cc23)n1 [Example 76]    27.9

# map each compound to its inhibition at 10 µM
1. FC(F)(F)Oc1ccc(-c2ccc3onc(Oc4ncccn4)c3c2)cc1 [Example 124]
2. FC(F)(F)Oc1ccc(-c2ccc3onc(OCc4nnc(C5CC5)s4)c3c2)cc1 [Example 154]
3. FC(F)(F)Oc1ccc(-c2ccc3onc(OCc4cn5ccccc5n4)c3c2)cc1 [Example 51]
4. FC(F)(F)Oc1ccc(-c2ccc3onc(OCc4nccn4-c4ccccc4)c3c2)cc1 [Example 64]
5. CCn1ccnc1COc1noc2ccc(-c3ccc(OC(F)(F)F)cc3)cc12 [Example 47]

1: 44.9; 2: 27; 3: 15.7; 4: 34.7; 5: 31.5

----------
Exercise: for every item that follows, state its recorded inhibition at 0.3 µM.
# ASSAY SYSTEM: wild-type human cardiac sodium channel, hNav1.5 (Homo sapiens)
# METHOD: Late INa screening assay (QPatch whole cell patch clamp, Tefluthrin-induced late current)
# Format: cell-based
# CONDITION DESCRIPTION: 0.3 uM; HEK293 hNav1.5; percent block of late INa
Numbers only, in %.

Here are 4 compounds together with their reported answers.
FC(F)(F)Oc1ccc(-c2ccc3onc(OCc4cnccn4)c3c2)cc1 [Example 151]    50.7
O=C1CCCN1CCNc1noc2ccc(-c3ccc(OC(F)(F)F)cc3)cc12 [Example 135]    19.7
CN1CC(COc2noc3ccc(-c4ccc(OC(F)(F)F)cc4)cc23)CC1=O (centres unmarked) [Example 56]    16.1
COc1ccnc(COc2noc3ccc(-c4ccc(OC(F)(F)F)cc4)cc23)n1 [Example 67]    54.4

API: the following record is the query input.
Kindly state the measured inhibition at 0.3 µM obtained for C[C@@H](N)COc1noc2ccc(-c3ccc(OC(F)(F)F)cc3)cc12 [Example 117] with wild-type human cardiac sodium channel, hNav1.5 (Homo sapiens).
39.4

----------
# ASSAY SYSTEM: UniProt Q15858
# Sequence (Q15858 whole entry): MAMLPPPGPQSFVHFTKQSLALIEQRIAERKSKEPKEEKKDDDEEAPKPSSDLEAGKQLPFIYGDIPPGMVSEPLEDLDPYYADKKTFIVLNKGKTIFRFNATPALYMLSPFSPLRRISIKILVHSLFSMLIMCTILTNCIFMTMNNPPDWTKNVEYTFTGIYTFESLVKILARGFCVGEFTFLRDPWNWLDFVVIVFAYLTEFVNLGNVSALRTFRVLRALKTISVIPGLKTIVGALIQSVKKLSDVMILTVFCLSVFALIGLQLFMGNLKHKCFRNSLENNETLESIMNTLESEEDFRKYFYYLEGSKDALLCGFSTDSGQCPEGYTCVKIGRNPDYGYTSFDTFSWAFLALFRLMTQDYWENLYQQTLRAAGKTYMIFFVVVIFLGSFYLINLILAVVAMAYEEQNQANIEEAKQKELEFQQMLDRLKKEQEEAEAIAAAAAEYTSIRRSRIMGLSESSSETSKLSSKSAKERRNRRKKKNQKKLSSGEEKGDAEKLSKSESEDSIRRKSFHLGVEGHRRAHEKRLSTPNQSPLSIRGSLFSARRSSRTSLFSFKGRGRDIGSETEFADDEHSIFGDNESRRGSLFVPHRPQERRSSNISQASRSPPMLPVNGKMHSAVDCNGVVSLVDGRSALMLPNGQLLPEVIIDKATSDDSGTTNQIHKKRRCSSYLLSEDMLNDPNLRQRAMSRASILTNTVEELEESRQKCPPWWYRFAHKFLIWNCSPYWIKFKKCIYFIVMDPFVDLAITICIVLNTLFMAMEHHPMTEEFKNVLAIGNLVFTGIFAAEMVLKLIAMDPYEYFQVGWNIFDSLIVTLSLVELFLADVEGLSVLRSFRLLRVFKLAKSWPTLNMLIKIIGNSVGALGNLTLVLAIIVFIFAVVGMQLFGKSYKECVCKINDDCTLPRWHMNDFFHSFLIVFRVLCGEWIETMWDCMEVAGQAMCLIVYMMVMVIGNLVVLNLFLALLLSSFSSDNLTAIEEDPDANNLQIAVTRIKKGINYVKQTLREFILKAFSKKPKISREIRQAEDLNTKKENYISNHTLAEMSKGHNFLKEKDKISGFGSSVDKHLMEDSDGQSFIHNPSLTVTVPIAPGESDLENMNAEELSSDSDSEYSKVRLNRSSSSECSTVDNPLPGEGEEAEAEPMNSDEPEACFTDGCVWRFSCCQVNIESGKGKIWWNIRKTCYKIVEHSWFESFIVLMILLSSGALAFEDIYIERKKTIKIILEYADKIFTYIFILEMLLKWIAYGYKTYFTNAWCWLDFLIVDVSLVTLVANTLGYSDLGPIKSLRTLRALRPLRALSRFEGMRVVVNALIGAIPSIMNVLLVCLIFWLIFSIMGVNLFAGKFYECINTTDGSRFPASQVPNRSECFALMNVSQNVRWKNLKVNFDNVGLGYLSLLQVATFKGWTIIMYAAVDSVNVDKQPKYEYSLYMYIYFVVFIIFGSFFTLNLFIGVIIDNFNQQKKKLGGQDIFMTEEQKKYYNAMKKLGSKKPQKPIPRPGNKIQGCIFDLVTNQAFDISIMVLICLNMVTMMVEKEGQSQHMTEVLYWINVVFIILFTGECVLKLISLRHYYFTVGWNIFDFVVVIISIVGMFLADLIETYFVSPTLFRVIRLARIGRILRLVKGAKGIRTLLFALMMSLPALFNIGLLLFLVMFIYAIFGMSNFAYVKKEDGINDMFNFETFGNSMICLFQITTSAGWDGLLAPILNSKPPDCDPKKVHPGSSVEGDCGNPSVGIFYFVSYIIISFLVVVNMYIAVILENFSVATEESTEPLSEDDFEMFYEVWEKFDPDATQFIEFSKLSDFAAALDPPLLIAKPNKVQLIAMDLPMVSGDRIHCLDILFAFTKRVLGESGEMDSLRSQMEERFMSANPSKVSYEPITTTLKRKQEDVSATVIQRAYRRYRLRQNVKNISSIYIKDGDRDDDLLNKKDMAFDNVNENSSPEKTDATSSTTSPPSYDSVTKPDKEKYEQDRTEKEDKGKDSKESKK
# METHOD: Voltage-dependent inhibition of the Nav1.7 sodium channel
# Type: cell-based
# CONDITION DESCRIPTION: voltage-dependent block of peak current
Exercise: for every item that follows, state its recorded Nav 1.7-VDB 1 uM.
Give bare numbers, in percentage inhibition.

FC(F)(F)Oc1cccc(-c2ccc3onc(OCc4ncccn4)c3c2)c1    10.0
Fc1cc(C(F)(F)F)ccc1-c1ccc2onc(OCc3ncccn3)c2c1    15.6
Cc1nnc(COc2noc3ccc(-c4ccc(OC(F)(F)F)cc4)cc23)o1    59.3

# map each compound to its Nav 1.7-VDB 1 uM
1. COc1cc(OC(F)(F)F)ccc1-c1ccc2onc(OCc3ncccn3)c2c1
2. Cc1cc(OC(F)(F)F)ccc1-c1cc2c(OCc3ncccn3)noc2cc1C

[28.6, 34.2]

----------
# ASSAY SYSTEM: wild-type human cardiac sodium channel, hNav1.5 (Homo sapiens, UniProt Q14524)
# METHOD: Late INa screening assay (QPatch whole cell patch clamp, Tefluthrin-induced late current)
# Format: cell-based
# CONDITION DESCRIPTION: 1 uM; HEK293 hNav1.5; percent block of late INa
Exercise: for every item that follows, state its recorded inhibition at 1 µM.
Answers are plain numbers, in %.

Here are 5 compounds together with their reported answers.
COc1ccnc(COc2noc3ccc(-c4ccc(OC(F)(F)F)cc4)cc23)c1 [Example 81]    33.7
FC(F)(F)Oc1ccc(-c2ccc3onc(-n4cnc(Cl)c4)c3c2)cc1 [Example 140]    37.6
FC(F)(F)Oc1ccc(-c2ccc3onc(OCc4nccc(C(F)(F)F)n4)c3c2)cc1 [Example 86]    21.9
FC(F)(F)Oc1ccc(-c2ccc3onc(OCc4cccnn4)c3c2)cc1 [Example 74]    60.9
FC(F)(F)Oc1ccc(-c2ccc3onc(OCCc4ncc[nH]4)c3c2)cc1 [Example 66]    21.9

# map each compound to its inhibition at 1 µM
1. CN1CC(COc2noc3ccc(-c4ccc(OC(F)(F)F)cc4)cc23)CC1=O (stereo not drawn) [Example 56]
2. O=C1CC[C@H](COc2noc3ccc(-c4ccc(OC(F)(F)F)cc4)cc23)N1 [Example 61]
3. COc1ccnc(CNc2noc3ccc(-c4ccc(OC(F)(F)F)cc4)cc23)n1 [Example 149]
4. CC(=O)N1CCOC[C@H]1COc1noc2ccc(-c3ccc(OC(F)(F)F)cc3)cc12 [Example 115]

1: 57.8; 2: 38.2; 3: 87.6; 4: 56.7

# map each compound to its inhibition at 1 µM
1. FC(F)(F)Oc1ccc(-c2ccc3onc(-n4cnc(C(F)(F)F)c4)c3c2)cc1 [Example 145]
2. Cn1cnc(COc2noc3ccc(-c4ccc(OC(F)(F)F)cc4)cc23)c1 [Example 43]
3. FC(F)(F)Oc1ccc(-c2ccc3onc(OCCn4cncn4)c3c2)cc1 [Example 58]

84.9
27.1
55

# map each compound to its inhibition at 1 µM
1. O=C1CCCN1CCOc1noc2c(F)cc(-c3ccc(OC(F)(F)F)cc3)cc12 [Example 80]
2. FC(F)(F)Oc1ccc(-c2ccc3onc(OCCN4CCOCC4)c3c2)cc1 [Example 78]
3. Cc1nccnc1COc1noc2ccc(-c3ccc(OC(F)(F)F)cc3)cc12 [Example 152]

[35.6, 47.1, 53.4]
